Every entry's value here was drawn from the supplement of paper PMC5499739.

- System: RBM10 RRM1-ZnF (GST-tagged construct);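 further: 20 pmol protein with 1.5 nmol RNA pool for 30 min at 4°C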
- test.method.notes: RNAcompete 7-mer binding Z-score; higher = stronger binding preference
Whole data set: some 16,000 sequences, median “Z-score” near -0.37, cut for the highest 2% near 3.2. For the sample, the highest values were picked, then their nearest neighbours and some sequences at random.
measurement.label: RNAcompete 7-mer binding Z-score
Please reply with the number alone, leaving off any unit.

Solved entries:
- GGUAUGA: 2.19
- UCUCCCC: -0.587
- GGUUAGU: 1.7
- AUUCAAA: -0.662
- ACGCUCG: -0.636
- GGAUUGG: 3.79
- AAUAUGG: 1.09
- GAACGGG: 4.25

Next up:
INPUT: For the sequence shown here, `CGUCUGC` , give the reported RNAcompete 7-mer binding Z-score.
OUTPUT: -0.759

###

- Tested on: RBM10 RRM1-ZnF (GST-tagged construct);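 further: 20 pmol protein with 1.5 nmol RNA pool for 30 min at 4°C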
- test.method.notes: RNAcompete 7-mer binding Z-score; higher = stronger binding preference
The full ranking holds about 16,000 sequences; the median of “Z-score” is about -0.37, and the highest 2% start at about 3.2. The sample holds the highest values, similar sequences and a random draw of the others, so the mix is not that of the screen.
measurement.label: RNAcompete 7-mer binding Z-score
Output spec: single numeric token, no unit.

• GAUGGGG = 4.43

INPUT: I'd like to know its RNAcompete 7-mer binding Z-score. The sequence in question is `GUAUCUC`
OUTPUT: -0.594

INPUT: Any idea what its RNAcompete 7-mer binding Z-score is? The sequence is `GAAACGU`
OUTPUT: -0.00246

INPUT: Tell me the measured RNAcompete 7-mer binding Z-score of `CAUAAGG` , please.
OUTPUT: 0.335

INPUT: Form field: reported RNAcompete 7-mer binding Z-score of `GGGGGAA`
OUTPUT: 3.15

INPUT: Entry `AGGUGGG` : reported RNAcompete 7-mer binding Z-score = ?
OUTPUT: 3.76

INPUT: Please look up its RNAcompete 7-mer binding Z-score: `AGGGGAA`
OUTPUT: 3.57

INPUT: Form field: reported RNAcompete 7-mer binding Z-score of `AUGUGGG`
OUTPUT: 3.84

INPUT: Requested field: RNAcompete 7-mer binding Z-score. Item: `UGGGAAU`
OUTPUT: 2.53

INPUT: Tell me the measured RNAcompete 7-mer binding Z-score of `CAUGGGA` , please.
OUTPUT: 1.95

INPUT: Need RNAcompete 7-mer binding Z-score of `UGAAAGG` , thanks.
OUTPUT: 3.05

INPUT: Look up RNAcompete 7-mer binding Z-score for this sequence: `GAUGGGA`
OUTPUT: 3.76

INPUT: Look up RNAcompete 7-mer binding Z-score for this sequence: `GCGGUUG`
OUTPUT: 1.42

INPUT: What value of measured RNAcompete 7-mer binding Z-score is listed for `UGGGUUU` ?
OUTPUT: 2.64

INPUT: Using the record for `AAGGGAC` , report its RNAcompete 7-mer binding Z-score.
OUTPUT: 3.18

INPUT: Requested field: RNAcompete 7-mer binding Z-score. Item: `GUGUGGA`
OUTPUT: 2.98

INPUT: GET /values?readout=RNAcompete 7-mer binding Z-score&item= `CGAAAGG`
OUTPUT: 2.19

INPUT: // returns reported RNAcompete 7-mer binding Z-score for input `AAGCUGG`
OUTPUT: 0.904

INPUT: What value of measured RNAcompete 7-mer binding Z-score is listed for `UCUGUGA` ?
OUTPUT: -0.581

INPUT: Endpoint output: RNAcompete 7-mer binding Z-score of `AAAAGGU` . Value?
OUTPUT: 2.33

INPUT: Recorded RNAcompete 7-mer binding Z-score of `GUAAGGG` , please.
OUTPUT: 3.85

INPUT: Query (sequence): `AAUGCCC` ; field requested: RNAcompete 7-mer binding Z-score
OUTPUT: -0.613

INPUT: Given the sequence `AUGCGUU` , what is its reported RNAcompete 7-mer binding Z-score?
OUTPUT: -0.405

INPUT: Quick one: RNAcompete 7-mer binding Z-score for `GAGGGAG` ?
OUTPUT: 3.2

INPUT: Looking for the measured RNAcompete 7-mer binding Z-score of `CGGGUUG` , can you help?
OUTPUT: 2.79
